Tested on: Sprague Dawley rats
Assay: PCP-induced hyperactivity in rats
Format: in vivo
Set-up: key: −: No inhibition of PCP hyperactivity; +: Significant inhibition of PCP hyperactivity (P value < 0.05)
Conditions: 30 mg/kg Compound + PCP (2.5 mg/kg s.c.), vs. vehicle + PCP
TEST READOUT: Total Distance Traveled (cm), PCP-induced hyperactivity

The reported value for Cl.Fc1sc2ccccc2c1C1C=CN=CN1 (centres unmarked) in terms of Total Distance Traveled (cm), PCP-induced hyperactivity is −

The reported value for Cc1c(C2C=CN=CN2)sc2ccccc12.Cl (centres unmarked) in terms of Total Distance Traveled (cm), PCP-induced hyperactivity is +

The reported value for Cc1sc2ccccc2c1C1C=CN=CN1 (centres unmarked) in terms of Total Distance Traveled (cm), PCP-induced hyperactivity is +

The reported value for Cc1cc(C2C=CN=CN2)cs1.Cl (centres unmarked) in terms of Total Distance Traveled (cm), PCP-induced hyperactivity is −

---

Test system: C57Bl/6J mice
Experiment: Pre-pulse Inhibition (PPI) of startle in mice
Format: in vivo
Set-up: key: −: No change in PPI; +: Significant increase in PPI at one pre-pulse intensity (P value < 0.05); ++: Significant increase in PPI at two pre-pulse intensities (P value < 0.05); +++: Significant increase in PPI at three pre-pulse intensities (P value < 0.05)
Details: 10 mg/kg, 30 min prior to PPI test, vs. vehicle
TEST READOUT: Effect on Pre-pulse Inhibition (PPI)

Worked set:
The reported value for Cc1sc2ccccc2c1C1C=CN=CN1 (centres unmarked) in terms of Effect on Pre-pulse Inhibition (PPI) is +

The reported value for Cl.Fc1sc2ccccc2c1C1C=CN=CN1 (centres unmarked) in terms of Effect on Pre-pulse Inhibition (PPI) is +

The reported value for Fc1ccc2c(c1)N=CNC2c1c(F)sc2ccccc12 (centres unmarked) in terms of Effect on Pre-pulse Inhibition (PPI) is −

The reported value for Cc1cc(C2C=CN=CN2)cs1.Cl (centres unmarked) in terms of Effect on Pre-pulse Inhibition (PPI) is −

Others:
The reported value for Cc1c(C2C=CN=CN2)sc2ccccc12.Cl (centres unmarked) in terms of Effect on Pre-pulse Inhibition (PPI) is −
